# system: Dihydroorotate dehydrogenase (quinone), mitochondrial (Homo sapiens)
# Sequence (Q02127 whole entry): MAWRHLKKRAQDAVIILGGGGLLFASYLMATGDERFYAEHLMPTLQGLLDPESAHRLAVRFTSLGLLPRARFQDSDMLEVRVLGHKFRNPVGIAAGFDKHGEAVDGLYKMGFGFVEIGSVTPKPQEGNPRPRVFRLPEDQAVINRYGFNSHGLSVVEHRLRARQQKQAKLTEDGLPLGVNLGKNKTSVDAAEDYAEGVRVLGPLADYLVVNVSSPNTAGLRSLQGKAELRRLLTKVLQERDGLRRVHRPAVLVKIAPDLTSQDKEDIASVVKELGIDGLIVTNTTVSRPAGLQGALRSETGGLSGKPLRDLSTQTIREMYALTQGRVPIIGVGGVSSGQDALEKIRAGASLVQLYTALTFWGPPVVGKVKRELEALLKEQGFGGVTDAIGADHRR
# method description: Inhibition of human DHODH using L-DHO, DUQ, DCIP as substrate preincubated for 30 mins followed by substrate addition measured after 20 mins
observable: IC50 (nM)
Provide the reading as a plain figure in nM.

Short answer on Dihydroorotate dehydrogenase (quinone), mitochondrial (Homo sapiens) for "O=C(O)c1cccc2[nH]c(-c3ccc(-c4ccccc4)cc3)nc12" , IC50: 750

----------
observable: pIC50
Notebook: values listed as pIC50 are -log10 of the concentration (mol/L).

Result for "NC(=O)c1cccc2[nH]c(-c3ccc(-c4cncc(C(=O)N5CCCC5)c4)cc3)nc12" , tested on Poly [ADP-ribose] polymerase 1 (Homo sapiens), pIC50: 7.54

pIC50 of "CC(=O)Nc1ccc(-c2ccc(-c3nc4c(C(N)=O)cccc4[nH]3)cc2)cn1" , assay on Poly [ADP-ribose] polymerase 1 (Homo sapiens), is 7.31

Readout pIC50 for "CC(=O)Nc1cccc(-c2ccc(-c3nc4c(C(N)=O)cccc4[nH]3)cc2)c1" , test system Poly [ADP-ribose] polymerase 1 (Homo sapiens), was 6.34

Note to self: pIC50 of "NC(=O)c1cccc2[nH]c(-c3ccc(-c4cncc(CN5CCCC5)c4)cc3)nc12" with Poly [ADP-ribose] polymerase 1 (Homo sapiens) was 7.21

The compound "NC(=O)c1cc(F)cc2[nH]c(-c3ccc(-c4ccc(NC(=O)C5CC5)cc4F)cc3F)nc12" on Poly [ADP-ribose] polymerase 1 (Homo sapiens): pIC50 was 7.08
